System: RAW264.7
Assay: Cytotoxicity against mouse RAW264.7 cells assessed as cell viability at 20 uM incubated for 24 hrs by CCK8 assay
Assay type: toxicity, cell-based
Details: raw264.7, 24 h
Value kind: Activity

- Cc1ccc(/C=C/C(=O)N2CCN(C(=O)CC[C@@H](C)[C@H]3CC[C@H]4[C@@H]5[C@@H](O)C[C@@H]6C[C@H](O)CC[C@]6(C)[C@H]5CC[C@]34C)CC2)cc1: Non-Toxic
- COc1cc(/C=C/C(=O)N2CCN(C(=O)CC[C@@H](C)[C@H]3CC[C@H]4[C@@H]5[C@@H](O)C[C@@H]6C[C@H](O)CC[C@]6(C)[C@H]5CC[C@]34C)CC2)cc(OC)c1OC: Non-Toxic
- COc1cc(/C=C/C(=O)N2CCN(C(=O)CC[C@@H](C)[C@H]3CC[C@H]4[C@@H]5[C@@H](O)C[C@@H]6C[C@H](O)CC[C@]6(C)[C@H]5CC[C@]34C)CC2)cc(OC)c1O: Toxic

###

System: RAW264.7
Test: Anti-inflammatory activity in mouse RAW264.7 cells assessed as inhibition of LPS-induced NO production incubated for 24 hrs
Type: functional, cell-based
Settings: RAW264.7, 24 h
Value kind: pIC50
Bear in mind: pIC50 is minus log10 of a mol/L concentration; give just that figure.

Worked examples, 4 compounds total:
* C[C@H](CCC(=O)N1CCN(C(=O)/C=C/c2ccccc2)CC1)[C@H]1CC[C@H]2[C@@H]3[C@@H](O)C[C@@H]4C[C@H](O)CC[C@]4(C)[C@H]3CC[C@]12C | 5.02
* Cc1ccc(/C=C/C(=O)N2CCN(C(=O)CC[C@@H](C)[C@H]3CC[C@H]4[C@@H]5[C@@H](O)C[C@@H]6C[C@H](O)CC[C@]6(C)[C@H]5CC[C@]34C)CC2)cc1 | 5.11
* COc1cc(/C=C/C(=O)N2CCN(C(=O)CC[C@@H](C)[C@H]3CC[C@H]4[C@@H]5[C@@H](O)C[C@@H]6C[C@H](O)CC[C@]6(C)[C@H]5CC[C@]34C)CC2)cc(OC)c1OC | 5.02
* C[C@H](CCC(=O)N1CCN(C(=O)/C=C/c2cccc(OC(F)(F)F)c2)CC1)[C@H]1CC[C@H]2[C@@H]3[C@@H](O)C[C@@H]4C[C@H](O)CC[C@]4(C)[C@H]3CC[C@]12C | 5.07

Read the next record carefully.
Entry C[C@H](CCC(=O)N1CCN(C(=O)/C=C/c2ccc(Cl)cc2)CC1)[C@H]1CC[C@H]2[C@@H]3[C@@H](O)C[C@@H]4C[C@H](O)CC[C@]4(C)[C@H]3CC[C@]12C , pIC50 reported as 5.08

###

Tested on: RAW264.7
Test: Cytotoxicity against mouse RAW264.7 cells assessed as cell viability at 20 uM incubated for 24 hrs by CCK8 assay
Type: toxicity, cell-based
Details: raw264.7, 24 h
Value kind: Activity

Please review the entries below; each comes with its answer.
* C[C@H](CCC(=O)N1CCN(C(=O)CCc2ccccc2)CC1)[C@H]1CC[C@H]2[C@@H]3[C@@H](O)C[C@@H]4C[C@H](O)CC[C@]4(C)[C@H]3CC[C@]12C | Non-Toxic
* COc1ccc(/C=C/C(=O)N2CCN(C(=O)CC[C@@H](C)[C@H]3CC[C@H]4[C@@H]5[C@@H](O)C[C@@H]6C[C@H](O)CC[C@]6(C)[C@H]5CC[C@]34C)CC2)cc1 | Non-Toxic
* COc1cc(/C=C\C(=O)N2CCN(C(=O)CC[C@@H](C)[C@H]3CC[C@H]4[C@@H]5[C@@H](O)C[C@@H]6C[C@H](O)CC[C@]6(C)[C@H]5CC[C@]34C)CC2)cc(OC)c1OC | Non-Toxic
* C[C@H](CCC(=O)N1CCN(C(=O)/C=C/c2ccc(O)cc2)CC1)[C@H]1CC[C@H]2[C@@H]3[C@@H](O)C[C@@H]4C[C@H](O)CC[C@]4(C)[C@H]3CC[C@]12C | Non-Toxic
* C[C@H](CCC(=O)N1CCN(C(=O)/C=C/c2ccc3c(c2)OCO3)CC1)[C@H]1CC[C@H]2[C@@H]3[C@@H](O)C[C@@H]4C[C@H](O)CC[C@]4(C)[C@H]3CC[C@]12C | Non-Toxic

Record C[C@H](CCC(=O)N1CCN(C(=O)/C=C/c2ccc(F)c(F)c2)CC1)[C@H]1CC[C@H]2[C@@H]3[C@@H](O)C[C@@H]4C[C@H](O)CC[C@]4(C)[C@H]3CC[C@]12C , field Activity: Non-Toxic

Lab book: Activity of Cc1ccc(/C=C/C(=O)N2CCN(C(=O)CC[C@@H](C)[C@H]3CC[C@H]4[C@@H]5C(=O)C[C@@H]6CC(=O)CC[C@]6(C)[C@H]5CC[C@]34C)CC2)cc1 noted as Toxic

// recorded Activity for C/C(=C\c1ccccc1)C(=O)N1CCN(C(=O)CC[C@@H](C)[C@H]2CC[C@H]3[C@@H]4[C@@H](O)C[C@@H]5C[C@H](O)CC[C@]5(C)[C@H]4CC[C@]23C)CC1 : Non-Toxic

Recorded result, C[C@H](CCC(=O)N1CCN(C(=O)/C=C/c2cccc(OC(F)(F)F)c2)CC1)[C@H]1CC[C@H]2[C@@H]3[C@@H](O)C[C@@H]4C[C@H](O)CC[C@]4(C)[C@H]3CC[C@]12C , Activity: Non-Toxic

###

Tested on: RAW264.7
Assay: Cytotoxicity against mouse RAW264.7 cells assessed as cell viability at 20 uM incubated for 24 hrs by CCK8 assay
Assay type: toxicity, cell-based
Details: raw264.7, 24 h
Value kind: Activity

• COc1cc(/C=C/C(=O)N2CCN(C(=O)CC[C@@H](C)[C@H]3CC[C@H]4[C@@H]5[C@@H](O)C[C@@H]6C[C@H](O)CC[C@]6(C)[C@H]5CC[C@]34C)CC2)ccc1O = Non-Toxic
• C[C@H](CCC(=O)N1CCN(C(=O)/C=C/c2cccc(O)c2)CC1)[C@H]1CC[C@H]2[C@@H]3[C@@H](O)C[C@@H]4C[C@H](O)CC[C@]4(C)[C@H]3CC[C@]12C = Non-Toxic
• C[C@H](CCC(=O)N1CCN(C(=O)/C=C/c2ccc(F)cc2F)CC1)[C@H]1CC[C@H]2[C@@H]3[C@@H](O)C[C@@H]4C[C@H](O)CC[C@]4(C)[C@H]3CC[C@]12C = Toxic
